# study-target: T1, TNFR2-His (Sino Biological, 10417-H08H, NP_001057.1 Met1-Asp257, with multi-histidine tag expressed on … (human, UniProt P20333 23-257))
# T1 construct: range 1-257; Bought protein; also called recombinant human TNFR2 protein; TNFR2-His antigen; not shown: C-terminal multi-histidine tag
# T1 sequence (looked up): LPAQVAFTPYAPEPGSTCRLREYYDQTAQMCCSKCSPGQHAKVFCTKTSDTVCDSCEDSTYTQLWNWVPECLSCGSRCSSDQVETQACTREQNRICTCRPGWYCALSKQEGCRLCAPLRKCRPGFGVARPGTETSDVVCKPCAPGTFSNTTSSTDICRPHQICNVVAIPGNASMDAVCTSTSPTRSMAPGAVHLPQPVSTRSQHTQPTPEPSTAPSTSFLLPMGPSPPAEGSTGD
# assay-info: ELISA, coated TNFR2-His
property: EC50 (nM)
Please respond with the number in nM and leave the unit unwritten.

Worked cases, answers included:
### Prompt What value of measured EC50 is listed for 11G2huVH5 + huVL2(P07270) (antibody, V domains shown, Humanized 11G2) VH: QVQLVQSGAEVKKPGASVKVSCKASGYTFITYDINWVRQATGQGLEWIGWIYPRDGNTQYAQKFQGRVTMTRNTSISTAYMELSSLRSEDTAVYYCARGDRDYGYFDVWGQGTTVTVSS VL: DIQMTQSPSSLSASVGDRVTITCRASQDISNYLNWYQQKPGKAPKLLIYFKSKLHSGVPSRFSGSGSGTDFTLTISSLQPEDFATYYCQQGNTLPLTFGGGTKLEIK ?
### Response 0.353

### Prompt Record request: EC50 value, item 11G2huVH2 + huVL1(P07263) (antibody, V domains shown, Humanized 11G2) VH: QVQLVQSGAEVKKPGASVKVSCKASGYTFITYDINWVRQAPGQGLEWIGWIYPRDGNTQFNENFKGRVTMTTDTSTSTAYMELRSLRSDDTAVYYCARGDRDYGYFDVWGQGTTVTVSS VL: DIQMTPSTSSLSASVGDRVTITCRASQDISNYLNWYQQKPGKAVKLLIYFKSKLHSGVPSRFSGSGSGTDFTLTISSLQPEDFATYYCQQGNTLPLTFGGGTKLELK
### Response 0.336

Continue with the next binder.
### Prompt For the binder shown here, human-mouse chimeric TNFR2 monoclonal antibody 7F2-hFc (antibody, V domains shown, Mouse V regions of clone 7F2 with human constant regions) VH: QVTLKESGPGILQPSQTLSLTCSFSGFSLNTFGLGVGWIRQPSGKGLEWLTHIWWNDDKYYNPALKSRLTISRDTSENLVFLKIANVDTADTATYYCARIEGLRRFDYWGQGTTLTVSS VL: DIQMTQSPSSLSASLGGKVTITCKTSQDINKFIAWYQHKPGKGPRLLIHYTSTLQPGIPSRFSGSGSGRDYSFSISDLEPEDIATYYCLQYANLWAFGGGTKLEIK , give the reported EC50.
### Response 0.319

Values from patent US20240392024A1
